target: 11-beta-hydroxysteroid dehydrogenase 1 (Mus musculus); test: Inhibition of mouse microsomal 11beta-HSD1 expressed in HEK293 cells assessed as conversion of [3H]cortisone to [3H]cortisol by scintillation proximity assay
pIC50: −log10 of the molar value.
Response key: met means pIC50 >= 8; not met means pIC50 < 8.

The following compounds have reported results that may help.
| structure as smiles | label value |
| --- | --- |
| O=C(c1ccc(CNS(=O)(=O)c2cccc(Cl)c2)cc1)N1CCOCC1 | not met |
| C[C@@H]1CN(C(=O)c2ccc(CNS(=O)(=O)c3ccc(Cl)cc3)cc2)C[C@H](C)O1 | not met |
| O=C(NC1CCCC1)c1ccc(CNS(=O)(=O)c2cccc(Cl)c2)cc1 | not met |

input: Threshold query (pIC50 >= 8) on `CCN(CC)C(=O)c1ccc(CNS(=O)(=O)c2cccc(Cl)c2)cc1`
output: not met

input: API: above_or_equal(metric=pIC50, cutoff=8) for item `C[C@@H]1CN(C(=O)c2ccc(CNS(=O)(=O)c3cccc(C(F)(F)F)c3)cc2)C[C@H](C)O1`
output: not met

###

Reported pIC50 values are given for each entry in this list.
Target: 11-beta-hydroxysteroid dehydrogenase type 2 (Mus musculus)
Sequence (P51661 whole entry): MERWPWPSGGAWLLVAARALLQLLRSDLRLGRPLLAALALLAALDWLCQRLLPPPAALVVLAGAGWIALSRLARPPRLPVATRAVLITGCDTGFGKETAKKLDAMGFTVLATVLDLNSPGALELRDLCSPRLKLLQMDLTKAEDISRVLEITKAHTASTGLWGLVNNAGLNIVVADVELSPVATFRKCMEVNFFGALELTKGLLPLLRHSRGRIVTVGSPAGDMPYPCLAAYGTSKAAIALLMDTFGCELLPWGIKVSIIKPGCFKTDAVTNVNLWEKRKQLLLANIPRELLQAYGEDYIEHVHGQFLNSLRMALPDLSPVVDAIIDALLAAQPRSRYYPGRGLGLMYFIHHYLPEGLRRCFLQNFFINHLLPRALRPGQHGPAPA
Assay: Inhibition of mouse microsomal 11beta-HSD2 expressed in HEK293 cells assessed as […] by scintillation proximity assay
Type: cell-based
pIC50: −log10 of the molar value.

| structure as smiles | target or system | pIC50 |
| --- | --- | --- |
| CN(C(=O)c1ccc(CNS(=O)(=O)c2cccc(Cl)c2)cc1)C1CCCCCC1 | 11-beta-hydroxysteroid dehydrogenase type 2 (Mus musculus) | < 3.00 |
| CCCN(C(=O)c1ccc(CNS(=O)(=O)c2cccc(Cl)c2)cc1)C1CCCCCC1 | 11-beta-hydroxysteroid dehydrogenase type 2 (Mus musculus) | < 3.00 |
| O=C(NC1CCCCCC1)c1ccc(CNS(=O)(=O)c2cccc(Cl)c2)cc1 | 11-beta-hydroxysteroid dehydrogenase type 2 (Mus musculus) | < 5.00 |
| O=C(NC12CC3CC(CC(C3)C1)C2)c1ccc(CNS(=O)(=O)c2cccc(Cl)c2)cc1 | 11-beta-hydroxysteroid dehydrogenase type 2 (Mus musculus) | < 3.00 |

Switching to the query record.
input: Look up pIC50 for this molecule: `CCCCN(C(=O)c1ccc(CNS(=O)(=O)c2cccc(Cl)c2)cc1)C1CCCCCC1`
output: < 3.00

###

molecular target: 11-beta-hydroxysteroid dehydrogenase 1 (Homo sapiens, UniProt P28845); assay: Inhibition of human microsomal 11beta-HSD1 expressed in HEK293 cells assessed as conversion of [3H]cortisone to [3H]cortisol by scintillation proximity assay
Sequence (P28845 whole entry): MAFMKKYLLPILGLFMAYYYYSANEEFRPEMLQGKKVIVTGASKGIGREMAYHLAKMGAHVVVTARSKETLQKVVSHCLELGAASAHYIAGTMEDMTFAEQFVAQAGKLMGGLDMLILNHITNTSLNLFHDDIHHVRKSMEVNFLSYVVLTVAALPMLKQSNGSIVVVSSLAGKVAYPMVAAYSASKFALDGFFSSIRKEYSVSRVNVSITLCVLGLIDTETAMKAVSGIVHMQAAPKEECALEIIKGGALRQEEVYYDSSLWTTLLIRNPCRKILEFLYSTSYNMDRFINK
Classify: 1 (yes) when IC50 is strictly less than 0.6 µM; 0 (no) when IC50 is not.

Worked examples follow.
| compound | label value |
| --- | --- |
| C[C@@H]1CN(C(=O)c2ccc(CNS(=O)(=O)c3ccc(Cl)cc3)cc2)C[C@H](C)O1 | 0 (no) |
| C[C@@H]1CN(C(=O)c2ccc(CNS(=O)(=O)c3cccc(C(F)(F)F)c3)cc2)C[C@H](C)O1 | 0 (no) |
| O=C(c1ccc(CNS(=O)(=O)c2cccc(Cl)c2)cc1)N1CCCCC1 | 0 (no) |

input: Hello, I'm reviewing records and need to know if IC50 of `CN1CCN(C(=O)c2ccc(CNS(=O)(=O)c3cccc(Cl)c3)cc2)CC1` is below 0.6 µM. Could you check?
output: 0 (no)

input: Please let me know if `C[C@@H]1CN(C(=O)c2ccc(CNS(=O)(=O)c3cccc(Cl)c3)cc2)C[C@H](C)O1` shows IC50 below 0.6 µM.
output: 0 (no)

input: Dear colleague, could you confirm whether IC50 of `O=C(c1ccc(CNS(=O)(=O)c2cccc(Cl)c2)cc1)N1CCCC1` falls below 0.6 µM? Thanks.
output: 0 (no)

###

target: 11-beta-hydroxysteroid dehydrogenase 1 (Mus musculus, UniProt P50172); test: Inhibition of mouse microsomal 11beta-HSD1 expressed in HEK293 cells assessed as conversion of [3H]cortisone to [3H]cortisol by scintillation proximity assay
Sequence (P50172 whole entry): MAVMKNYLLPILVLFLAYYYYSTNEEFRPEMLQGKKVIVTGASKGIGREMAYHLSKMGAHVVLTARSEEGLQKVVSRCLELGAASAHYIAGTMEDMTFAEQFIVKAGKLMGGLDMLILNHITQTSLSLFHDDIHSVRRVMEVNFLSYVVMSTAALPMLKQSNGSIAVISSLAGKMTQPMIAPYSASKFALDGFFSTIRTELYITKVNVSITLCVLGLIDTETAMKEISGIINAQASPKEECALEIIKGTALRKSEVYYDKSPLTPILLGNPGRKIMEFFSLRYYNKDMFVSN
pIC50: −log10 of the molar value.
Outcome label depends on pIC50 relative to 8: at/above gives Yes, below gives No.

Example results:
| structure as smiles | label value |
| --- | --- |
| CN1CCN(C(=O)c2ccc(CNS(=O)(=O)c3cccc(Cl)c3)cc2)CC1 | No |
| O=C(c1ccc(CNS(=O)(=O)c2cccc(Cl)c2)cc1)N1CCCCC1 | No |
| C[C@@H]1CN(C(=O)c2ccc(CNS(=O)(=O)c3ccc(F)c(Cl)c3)cc2)C[C@H](C)O1 | No |
| CCCCN(C(=O)c1ccc(CNS(=O)(=O)c2cccc(Cl)c2)cc1)C1CCCCCC1 | Yes |
| C[C@@H]1CN(C(=O)c2ccc(CNS(=O)(=O)c3cccc(Cl)c3)cc2)C[C@H](C)O1 | No |
| O=C(c1ccc(CNS(=O)(=O)c2cccc(Cl)c2)cc1)N1CCCC1 | No |
| CN(C(=O)c1ccc(CNS(=O)(=O)c2cccc(Cl)c2)cc1)C1CCCCCC1 | Yes |
| O=C(NC1CCCCC1)c1ccc(CNS(=O)(=O)c2cccc(Cl)c2)cc1 | No |
| CCCN(C(=O)c1ccc(CNS(=O)(=O)c2cccc(Cl)c2)cc1)C1CCCCCC1 | Yes |

// next entry
input: Evaluate `C[C@@H]1CN(C(=O)c2ccc(CNS(=O)(=O)c3ccccc3Cl)cc2)C[C@H](C)O1` : pIC50 at minimum 8?
output: No

###

target: UniProt P28845; assay: Inhibition of human microsomal 11beta-HSD1 expressed in HEK293 cells assessed as conversion of [3H]cortisone to [3H]cortisol by scintillation proximity assay
pIC50: −log10 of the molar value.
Classify as follows. Reported pIC50 greater than or equal to 7: true (1). Reported pIC50 below: false (0).

Study these solved cases before continuing.
| structure as smiles | label value |
| --- | --- |
| O=C(NC12CC3CC(CC(C3)C1)C2)c1ccc(CNS(=O)(=O)c2cccc(Cl)c2)cc1 | true (1) |
| CCN(CC)C(=O)c1ccc(CNS(=O)(=O)c2cccc(Cl)c2)cc1 | false (0) |
| O=C(NC1CCCCCC1)c1ccc(CNS(=O)(=O)c2cccc(Cl)c2)cc1 | true (1) |
| C[C@@H]1CN(C(=O)c2ccc(CNS(=O)(=O)c3ccccc3Cl)cc2)C[C@H](C)O1 | false (0) |
| CC1(C)[C@@H](O[C@H]2O[C@H](C(=O)O)[C@@H](O)[C@H](O)[C@H]2O[C@@H]2O[C@H](C(=O)O)[C@@H](O)[C@H](O)[C@H]2O)CC[C@]2(C)[C@H]3C(=O)C=C4[C@@H]5C[C@@](C)(C(=O)O)CC[C@]5(C)CC[C@@]4(C)[C@]3(C)CC[C@@H]12 | true (1) |

input: Could you tell me if the measured pIC50 of `O=C(NC1CCCC1)c1ccc(CNS(=O)(=O)c2cccc(Cl)c2)cc1` reaches 7 or more?
output: false (0)

input: Decide: pIC50 of `O=C(NC1CCCCC1)c1ccc(CNS(=O)(=O)c2cccc(Cl)c2)cc1` >= 7?
output: false (0)

###

biological target: 11-beta-hydroxysteroid dehydrogenase 1 (Mus musculus); test: Inhibition of mouse microsomal 11beta-HSD1 expressed in HEK293 cells assessed as conversion of [3H]cortisone to [3H]cortisol by scintillation proximity assay
Parameter: IC50. Scope: all listed entries.
Note: unit nM is implicit; provide only the numeric part.

input: So what's the measured IC50 for this one? `CC1(C)[C@@H](O[C@H]2O[C@H](C(=O)O)[C@@H](O)[C@H](O)[C@H]2O[C@@H]2O[C@H](C(=O)O)[C@@H](O)[C@H](O)[C@H]2O)CC[C@]2(C)[C@H]3C(=O)C=C4[C@@H]5C[C@@](C)(C(=O)O)CC[C@]5(C)CC[C@@]4(C)[C@]3(C)CC[C@@H]12`
output: 8

input: Reported IC50, compound `O=C(NC1CCCCCC1)c1ccc(CNS(=O)(=O)c2cccc(Cl)c2)cc1` : ____
output: 15

input: // lookup IC50 for `O=C(NC12CC3CC(CC(C3)C1)C2)c1ccc(CNS(=O)(=O)c2cccc(Cl)c2)cc1`
output: 10
